# MEASUREMENT_TARGET: Geranylgeranyl transferase type I (Homo sapiens, UniProt P49354+P53609)
# TEST_SUMMARY: In vitro inhibitory activity against Geranylgeranyl transferase type I
# Type: protein-complex assay
pIC50: −log10 of the molar value.
Measured pIC50 accompanies every entry in the list below.
PARAMETER: pIC50

MOLECULE: Cc1ncc(C(OCc2c(-c3cccc(Cl)c3)cc(C#N)c(=O)n2C)c2ccc(C#N)cc2)n1C (configuration not stated)
PARAMETER: pIC50
COMPARATIVE_SIGN: <
NUMERIC_READOUT: 6.05
//
MOLECULE: Cn1c(COC(c2ccc(C#N)cc2)c2cncs2)c(-c2cc(Cl)cc(Cl)c2)cc(C#N)c1=O (configuration not stated)
PARAMETER: pIC50
COMPARATIVE_SIGN: <
NUMERIC_READOUT: 5.00
//
MOLECULE: Cn1cncc1C(OCc1c(-c2cccc(F)c2)cc(C#N)c(=O)n1C)c1ccc(C#N)cc1 (configuration not stated)
PARAMETER: pIC50
COMPARATIVE_SIGN: <
NUMERIC_READOUT: 5.00
//
MOLECULE: CCn1c(COC(c2ccc(C#N)cc2)c2cncn2C)c(-c2cccc(Cl)c2)cc(C#N)c1=O (configuration not stated)
PARAMETER: pIC50
COMPARATIVE_SIGN: =
NUMERIC_READOUT: 5.48
//
MOLECULE: COc1cccc(-c2cc(C#N)c(=O)n(C)c2COC(c2ccc(C#N)cc2)c2cncn2C)c1 (configuration not stated)
PARAMETER: pIC50
COMPARATIVE_SIGN: =
NUMERIC_READOUT: 5.49
//
MOLECULE: Cn1cncc1C(OCc1c(-c2ccc(OC(F)(F)F)cc2)cc(C#N)c(=O)n1C)c1ccc(C#N)c(-c2ccccc2Cl)c1 (configuration not stated)
PARAMETER: pIC50
COMPARATIVE_SIGN: =
NUMERIC_READOUT: 6.96
//
MOLECULE: Cn1cncc1C(OCc1c(-c2cccc(Cl)c2)cc(C#N)c(=O)n1C)c1ccc(C#N)c(Cl)c1 (configuration not stated)
PARAMETER: pIC50
COMPARATIVE_SIGN: =
NUMERIC_READOUT: 6.05
